- Tested on: ACHN
- EXPERIMENT NOTES: NCI tumour cell line growth inhibition, 48 h
Calls of active or inactive are those of the source. No stated cut-off is given here; in the data, active = GI50 up to about 1.1 µM and inactive = higher.
# key: entry, value: GI50
READOUT: GI50

MOLECULE	STUDY TARGET	RESULT VALUE
O=C1C2C3C=CC(C2C(=O)N1CO)C1C2C(=O)N(CO)C(=O)C2C31 (configuration not stated)	ACHN	> 44.9 µM (inactive)
CCCSc1cc(Cl)c(C)cc1S(=O)(=O)n1ccnc1OCCCN(C)C	ACHN	> 100 µM (inactive)
CCC12CCC(O)C1N(C)CCC2Sc1ccccc1 (configuration not stated)	ACHN	> 100 µM (inactive)
CSc1sc(=S)sc1C(=O)N(C)c1ccccc1	ACHN	> 100 µM (inactive)
C=CCn1c2c(sc1=S)C(S)NC=N2 (configuration not stated)	ACHN	71.3 µM (inactive)
CC1(C)C=Cc2c(cc3oc4ccc5c(c4c(=O)c3c2O)C=CC(C)(C)O5)O1	ACHN	> 100 µM (inactive)
Cc1c2c(cc3c(=O)ccn(CCN(C)C)c13)c(=O)ccn2CCN(C)C	ACHN	5.4 µM (inactive)
COc1c(/C=C/C=O)cc2c(c1OC)OCO2	ACHN	27.3 µM (inactive)
COc1cccc(C2SC(=N)Nc3c2c(C)nn3C(=O)c2ccccc2O)c1 (configuration not stated)	ACHN	1.77 µM (inactive)
COc1ccc(NC(C)=O)cc1C1CCC(=O)N1 (configuration not stated)	ACHN	> 100 µM (inactive)
CNc1ccc2ncccc2c1[N+](=O)[O-]	ACHN	> 100 µM (inactive)
C[n+]1c2ccccc2c(NC(CCCNC(=N)N)C(=O)O)c2ccccc21 (configuration not stated)	ACHN	> 100 µM (inactive)
